# Tested on: KM-20L2
# assay-notes: NCI tumour cell line growth inhibition, 48 h
Calls of active or inactive are those of the source. Rule as the data show it: active = GI50 up to about 1.1 µM and inactive = higher.
Outcome codes: active, inactive

[[record]]
compound = "CSc1ccc2c(cc1=O)C(NC(=O)c1ccc(C#N)cc1)CCc1cc(O)c(O)c(O)c1-2 (centres undefined)"
assayed_system = "KM-20L2"
assigned_category = "inactive"

[[record]]
compound = "CC(=O)OC1COC(n2c(=S)n(-c3ccccc3)c(=O)c3ccccc32)C(OC(C)=O)C1OC(C)=O (centres undefined)"
assayed_system = "KM-20L2"
assigned_category = "inactive"

[[record]]
compound = "COC1C(C)OC(OC2CC(C)(O)Cc3cc4c(c(O)c32)C(=O)c2c(O)cc3c(c2C4=O)OC2OC3(C)C(O)C(N(C)C)C2O)C(OC)C1(C)OC (centres undefined)"
assayed_system = "KM-20L2"
assigned_category = "active"

[[record]]
compound = "Cc1c(/C=N/NC(=O)c2ccccc2O)c(=O)n(-c2ccccc2)n1C"
assayed_system = "KM-20L2"
assigned_category = "inactive"

[[record]]
compound = "O=c1cc(O)ccn1C1C=C(CO)C(O)C1O (centres undefined)"
assayed_system = "KM-20L2"
assigned_category = "inactive"

[[record]]
compound = "O=NN(CCCl)C(=O)NC1CCC(=O)NC1=O (centres undefined)"
assayed_system = "KM-20L2"
assigned_category = "inactive"

[[record]]
compound = "Cc1ccc(C)c(NC(=O)CC2SC(Nc3ccccc3Cl)=NC2=O)c1 (centres undefined)"
assayed_system = "KM-20L2"
assigned_category = "inactive"

[[record]]
compound = "C=CCn1cc(C(=O)NC(=O)NCCCCCOC(=O)CCCCCCCCCCC(=O)OCCCCCNC(=O)NC(=O)c2cn(CC=C)c(=O)n(C)c2=O)c(=O)n(C)c1=O"
assayed_system = "KM-20L2"
assigned_category = "inactive"

[[record]]
compound = "CN1N=C(Nc2ccccc2)Sc2c1cnn(-c1ccccc1)c2=O"
assayed_system = "KM-20L2"
assigned_category = "inactive"

